Molecular target: SCD (Rattus norvegicus, UniProt P07308)
Construct: the obtained precipitate other than the glycogen layer was used as the microsome fraction; from tissue; host or cells: rat liver microsome fraction
Sequence (P07308 whole entry): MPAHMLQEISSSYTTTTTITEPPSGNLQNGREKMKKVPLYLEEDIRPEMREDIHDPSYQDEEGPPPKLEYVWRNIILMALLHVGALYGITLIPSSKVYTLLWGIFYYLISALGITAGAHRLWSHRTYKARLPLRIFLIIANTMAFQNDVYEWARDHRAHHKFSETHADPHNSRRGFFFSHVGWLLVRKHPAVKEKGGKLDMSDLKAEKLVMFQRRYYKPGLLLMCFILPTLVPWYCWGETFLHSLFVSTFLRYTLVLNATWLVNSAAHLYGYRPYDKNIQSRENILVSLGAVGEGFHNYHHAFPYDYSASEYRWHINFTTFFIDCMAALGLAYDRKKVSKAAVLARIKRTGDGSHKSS
Experiment: Measurement of SCD inhibitory activity using microsome (TLC detection system)
Format: biochemical
Conditions: 1 μM compound; rat liver microsome fraction; [14C]stearoyl-CoA; read-out: Rate of inhibition of SCD activity at compound concentration of 1 μM
measurement.kind: inhibition at 1 µM (%)
Your answer is read as %, so omit the unit and give the number.

The examples below pair each entry with its known result.
> print(dat)
                                   molecule    measurement.kind  unit.spec  measured.number
1  COC1(c2ccc(S(F)(F)(F)(F)F)cc2)CCN(c2ccc(-c3nnc(CO)s3)nn2)CC1 [Example 111]  inhibition at 1 µM          %               96
2  N#CC1(c2ccc(S(F)(F)(F)(F)F)cc2)CCN(c2ccc(-c3nnc(CO)o3)nn2)CC1 [Example 58]  inhibition at 1 µM          %               92

With those in mind, consider the next molecule.
Measured inhibition at 1 µM, N#CC1(c2ccc(S(F)(F)(F)(F)F)cc2)CCN(c2ccc(-c3nnc(CO)s3)nn2)CC1 [Example 109] : 93
